- TARGET SYSTEM: human NK3 (Homo sapiens)
- Sequence (P29371 1-465): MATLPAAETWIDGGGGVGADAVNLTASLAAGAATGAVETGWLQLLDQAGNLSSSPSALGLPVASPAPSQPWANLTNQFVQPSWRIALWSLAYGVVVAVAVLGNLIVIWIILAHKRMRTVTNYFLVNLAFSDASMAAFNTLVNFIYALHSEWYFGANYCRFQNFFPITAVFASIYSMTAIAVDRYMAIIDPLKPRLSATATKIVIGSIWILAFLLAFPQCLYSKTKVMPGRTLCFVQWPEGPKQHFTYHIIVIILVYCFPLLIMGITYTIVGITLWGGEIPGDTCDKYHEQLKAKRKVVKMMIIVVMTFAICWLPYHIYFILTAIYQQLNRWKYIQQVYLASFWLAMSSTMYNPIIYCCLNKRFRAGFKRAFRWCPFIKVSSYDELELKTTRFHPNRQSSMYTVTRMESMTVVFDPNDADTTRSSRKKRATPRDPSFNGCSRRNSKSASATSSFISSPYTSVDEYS
- PROTOCOL DESCRIPTION: FLIPR calcium assay in antagonist mode (NKB EC70 challenge)
- EXPERIMENTAL PARAMETERS: stable cell line expressing human recombinant NK3; antagonist mode vs EC70 of NKB agonist
- Source text: Stable Cell Lines: A human recombinant NK3 Tachykinin Receptor stable cell line was purchased from GenScript (Genscript, Cat. #M00201; GenBank Accession Number NM 001059). […] This bank of assay-ready frozen cells was later used in FLIPR assays to evaluate the potency and efficacy of NK3 antagonist test compounds. […] Calculation of NKB EC70: An EC70 concentration of NKB needed to be determined for competition against test antagonists prior to the compound screen. […]
pIC50: −log10 of the molar value.
READOUT TYPE: pIC50

The cases that follow already have their pIC50 on record.
Look up pIC50 for this compound: Cn1cc(-c2cccc(F)c2-c2nc3cc(C(=O)N[C@H]4CC[C@](C)(O)CC4)ccn3c2C#N)c(F)n1 [Compound 930]
8.52

I am curious: what pIC50 value has been reported for C[C@H]1C[C@H](NC(=O)c2ccn3c(Cl)c(-c4c(F)cc(F)cc4-c4c[nH]nc4F)nc3c2)C1 [Compound 847] ?
8.45

Entry Cn1cc(-c2cccc(F)c2-c2nc3cc(C(=O)N[C@H]4C[C@@](C)(O)C4)ccn3c2Cl)c(F)n1 [Compound 791] : reported pIC50 = ?
9.14

I: Cc1nn(C)cc1-c1cccc(F)c1-c1nc2cc(C(=O)N[C@@H]3CO[C@H]4[C@@H]3OC[C@H]4O)ccn2c1Cl [Compound 470]
II: Cc1nn(C)cc1-c1ccccc1-c1nc2cc(C(=O)NC[C@H]3CNCCO3)ccn2c1Cl [Compound 461]
I need your help: which of the pair I , II has higher pIC50? In your reply, give the label of the chosen option.
I
(I: 8.85, II: 8.47)

###

- TARGET SYSTEM: human NK3 (Homo sapiens, UniProt P29371)
- PROTOCOL DESCRIPTION: FLIPR calcium assay in antagonist mode (NKB EC70 challenge)
- EXPERIMENTAL PARAMETERS: stable cell line expressing human recombinant NK3; antagonist mode vs EC70 of NKB agonist
- Source text: Stable Cell Lines: A human recombinant NK3 Tachykinin Receptor stable cell line was purchased from GenScript (Genscript, Cat. #M00201; GenBank Accession Number NM 001059). […] This bank of assay-ready frozen cells was later used in FLIPR assays to evaluate the potency and efficacy of NK3 antagonist test compounds. […] Calculation of NKB EC70: An EC70 concentration of NKB needed to be determined for competition against test antagonists prior to the compound screen. […]
READOUT TYPE: IC50 (nM)

These recorded examples may help you get a feel for the data.
Would you kindly share the measured IC50 for COC12CC(NC(=O)c3ccn4c(Cl)c(-c5c(F)cc(F)cc5-c5c[nH]nc5F)nc4c3)(C1)C2 ?
2

Any idea what its IC50 is? The molecule is Cc1nn(C)cc1-c1ccccc1-c1nc2cc(C(=O)O)ccn2c1Cl
67.5

// returns reported IC50 for input Cc1nn(C)cc1-c1ccccc1-c1nc2cc(C(=O)N[C@H]3CO[C@H]4[C@@H]3OC[C@@H]4O)ccn2c1C#N
5.21

A: Cc1nn(C)cc1-c1ccccc1-c1nc2cc(C(=O)NC[C@@H]3CNCCO3)ccn2c1Cl
B: Cc1nn(C)cc1-c1ccccc1-c1nc2cc(C(=O)N[C@@H]3CO[C@H]4[C@@H]3OC[C@H]4O)ccn2c1Cl
When A and B are compared, which has the higher number for IC50? State your choice using its label.
A
(A: 1.74 nM, B: 1.21 nM)

I: Cc1nn(C)cc1-c1ccccc1-c1nc2cc(C(=O)NC(C)c3n[nH]c(=O)[nH]3)ccn2c1Cl (stereo not shown)
II: Cc1nn(C)cc1-c1ccccc1-c1nc2cc(C(=O)NCCC3(O)COC3)ccn2c1Cl
I or II : whose IC50 is greater? Answer = label.
II

###

- TARGET SYSTEM: human NK3 (Homo sapiens, UniProt P29371)
- PROTOCOL DESCRIPTION: FLIPR calcium assay in antagonist mode (NKB EC70 challenge)
- EXPERIMENTAL PARAMETERS: stable cell line expressing human recombinant NK3; antagonist mode vs EC70 of NKB agonist
READOUT TYPE: IC50 (nM)

Worked examples follow.
Consider the compound Cn1cc(-c2cccc(F)c2-c2nc3cc(C(=O)N[C@H]4CC5(C4)C[C@](C)(O)C5)ccn3c2Cl)c(F)n1 (some centres unmarked) [Compound 929] and give its measured IC50.
2.07

Would you kindly share the measured IC50 for Cn1cc(-c2cccc(F)c2-c2nc3cc(C(=O)N[C@H]4CC5(C4)C[C@](C)(O)C5)ccn3c2Cl)c(F)n1 (some centres unmarked) [Compound 928] ?
1.56

Could you share which IC50 value was measured for Cc1nn(C)cc1-c1cccc(F)c1-c1nc2cc(C(=O)N[C@H]3CO[C@H]4[C@@H]3OC[C@@H]4O)ccn2c1Cl ?
2.63

Returns the measured IC50 for the input compound. Input: Cc1nn(C)cc1-c1ccccc1-c1nc2cc(C(=O)NC34CC(O)(C3)C4)ccn2c1Cl
2.3

Return reported IC50; argument: Cc1nn(C)cc1-c1cccc(F)c1-c1nc2cc(C(=O)N3C[C@@H]4C[C@H]3C(=O)N4)ccn2c1C#N
4.27

I: O=C1N[C@H]2C[C@@H]1N(C(=O)c1ccn3c(Cl)c(-c4ccccc4-c4cnn(C(F)(F)F)c4C(F)(F)F)nc3c1)C2
II: Cn1cc(-c2ccc(F)c(F)c2-c2nc3cc(C(=O)N[C@H]4C[C@@](C)(O)C4)ccn3c2Cl)c(F)n1
Given the listed records, identify the one among I and II with higher IC50. Kindly give the label for the entry you pick.
I

###

- TARGET SYSTEM: human NK3 (Homo sapiens)
- PROTOCOL DESCRIPTION: FLIPR calcium assay in antagonist mode (NKB EC70 challenge)
- EXPERIMENTAL PARAMETERS: stable cell line expressing human recombinant NK3; antagonist mode vs EC70 of NKB agonist
- From the text: Stable Cell Lines: A human recombinant NK3 Tachykinin Receptor stable cell line was purchased from GenScript (Genscript, Cat. #M00201; GenBank Accession Number NM 001059). […] This bank of assay-ready frozen cells was later used in FLIPR assays to evaluate the potency and efficacy of NK3 antagonist test compounds. […] Calculation of NKB EC70: An EC70 concentration of NKB needed to be determined for competition against test antagonists prior to the compound screen. […]
pIC50: −log10 of the molar value.
READOUT TYPE: pIC50

Would you please look over these solved cases?
# get_value(readout='pIC50', item= C[C@]1(O)C[C@H](NC(=O)c2ccn3c(Cl)c(-c4ccccc4-c4cn(C(F)F)nc4Cl)nc3c2)C1 [Compound 819] )
8.21

Using the record for Cc1nn(C)cc1-c1ccccc1-c1nc2cc(C(=O)NCC3(O)COC3)ccn2c1Cl [Compound 650] , report its pIC50.
8.23

May I ask what pIC50 has been recorded for Cc1nn(C)cc1-c1ccccc1-c1nc2cc(C(=O)NC3CCNCC3)ccn2c1Cl [Compound 704] ?
8.17

Report pIC50 for Cn1cc(-c2cccc(F)c2-c2nc3cc(C(=O)N[C@H]4C[C@](O)(CO)C4)ccn3c2Cl)c(F)n1 [Compound 843] please.
8.97

Endpoint output: pIC50 of Cc1nn(C)cc1-c1ccccc1-c1nc2cc(C(=O)NCC(C)(C)O)ccn2c1Cl [Compound 448] . Value?
8.22

I: Cc1c(-c2ccccc2-c2nc3cc(C(=O)N[C@@H]4CO[C@H]5[C@@H]4OC[C@H]5O)ccn3c2Cl)cnn1CC1CC1 [Compound 801]
II: Cc1nn(C)cc1-c1ccncc1-c1nc2cc(C(=O)N[C@H]3C[C@](C)(O)C3)ccn2c1Cl [Compound 825]
III: Cc1nn(C)cc1-c1ccccc1-c1nc2cc(C(=O)N3C[C@@H]4C[C@H]3C(=O)N4)ccn2c1Cl [Compound 434]
IV: Cc1nn(C)cc1-c1ccccc1-c1nc2cc(C(=O)N[C@H]3C[C@@](C)(O)C3)ccn2c1Cl [Compound 460]
Place the items in sequence of falling pIC50. Your task in answering is to list the labels in the requested order.
III, IV, II, I
